Biological target: AKR1C3 (Homo sapiens, UniProt P42330)
Construct: AKR1C3 human ORF-Clone transiently over-expressed in HEK293 cells
Sequence (P42330 1-323): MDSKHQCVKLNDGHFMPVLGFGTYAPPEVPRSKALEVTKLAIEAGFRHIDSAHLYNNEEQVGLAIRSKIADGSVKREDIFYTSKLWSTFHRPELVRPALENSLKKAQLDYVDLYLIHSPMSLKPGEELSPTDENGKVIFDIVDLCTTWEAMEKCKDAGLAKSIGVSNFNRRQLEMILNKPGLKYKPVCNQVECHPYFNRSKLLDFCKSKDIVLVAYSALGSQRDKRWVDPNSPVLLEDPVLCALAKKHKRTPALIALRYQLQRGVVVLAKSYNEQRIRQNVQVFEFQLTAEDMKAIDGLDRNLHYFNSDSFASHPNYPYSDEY
Experiment: inhibition of idarubicinol formation (UPLC-MS/MS) in HEK293 cells over-expressing AKR1C3, compared with empty-vector control
readout_type: IC50 (nM)
API: value field is a number in nM; no unit string.

[in] For the compound `O=C1C[C@@]2(C(=O)N1)C(=O)N(Cc1ccc(Br)cc1F)C(=O)c1cccn12` , give its reported IC50.
[out] 500
